Kindly state EC50 for each of the entries shown.
Target: T1, human full-length CD73 on hCD73-CHO-1C11 cells (human, UniProt P21589 27-549)
T1 construct: it may be a nucleotide entry; also called CHO-CD73-1C11
T1 sequence: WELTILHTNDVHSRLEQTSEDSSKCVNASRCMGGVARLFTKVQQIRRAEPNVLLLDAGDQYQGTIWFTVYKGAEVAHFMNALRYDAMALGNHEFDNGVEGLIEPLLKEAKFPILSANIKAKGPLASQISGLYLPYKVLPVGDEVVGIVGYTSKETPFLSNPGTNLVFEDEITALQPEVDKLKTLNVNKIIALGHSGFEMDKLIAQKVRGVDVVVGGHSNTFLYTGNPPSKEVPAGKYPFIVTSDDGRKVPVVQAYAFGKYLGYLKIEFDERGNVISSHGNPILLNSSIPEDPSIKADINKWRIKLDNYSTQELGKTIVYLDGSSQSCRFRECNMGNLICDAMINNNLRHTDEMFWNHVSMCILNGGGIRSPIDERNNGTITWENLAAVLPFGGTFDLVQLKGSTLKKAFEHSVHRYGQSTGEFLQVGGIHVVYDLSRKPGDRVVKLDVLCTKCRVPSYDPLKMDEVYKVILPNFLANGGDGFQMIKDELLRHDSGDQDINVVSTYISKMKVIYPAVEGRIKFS
Test: FACS on CHO-CD73-1C11 cells
Form entry: value (nM) — number only.

Q: Please supply the value of reported EC50 for the item CD73 antibody 14H10 (antibody, V domains shown, Mouse variable regions on human IgG heavy chain constant region and human kappa constant region (chimeric IgG)) VH: QIQLQQSGAELARPGASVNLSCKASGYSFTSYWMQWLKQRPGQGLEWIGAIYPGDGDTRYTQKFKGKATLTADKSSSTAYMQLSSLASEDSAVYYCALFSYWGQGTLVTVSA VL: DIQMTQSPSSLSASLGERVSLTCRASQDIGSSLNWLQQEPDGTFKRLIYATSTLDSGVPKRFSGSRSGSDYSLTISSLESEDFVDYYCLQYASFPYTFGGGTKLEIK
A: 2.62

Q: For the binder CD73 antibody 7E10 (antibody, V domains shown, Mouse variable regions on human IgG heavy chain constant region and human kappa constant region (chimeric IgG); also called Clone 7E10) VH: QVQFQQSGAELVRPGASVKLSCKASGYIFSSYWIQWVKQRPGQGLEWIGAIYPGDGDTRYTQKFKDKATLTADKSSSTAYMQLSSLASEDSAVYYCAGFASWGQGTLVTVSA VL: DIQMTQSPSSLSASLGERVSLTCRASQDIGSSLNWLQQEPNGTIKRLIYATSSLDSGVPKRFSGSRSGSDYSLTISSLESEDFADYYCLQYASSPYTFGGGTKLEIK , give its reported EC50.
A: 8.59

Q: Give the value of EC50 reported for the following: CD73 antibody 6A8 (antibody, V domains shown, Mouse variable regions on human IgG heavy chain constant region and human kappa constant region (chimeric IgG); also called Clone 6A8) VH: QVQFQQSGAELARPGTSVKLSCKASGYIFTSYWIQWIKQRPGQGLEWIGAIYPGDGDTRYTQKFKGKATLTAEKSSSTAYMQLRSLASEDSAVYYCAGFASWGQGTLLTVSA VL: DIQMTQSPSSLSASLGERVNLTCRASQDIGDSLIWLQQEPDGTIKRLIYATSSLDSGVPKRFSGSRSGSDYSLTISSLESEDLVDYYCLQYASSPFTFGGGTKLEIK
A: 11
